Tested on: HBV
assayInfo: Anti-HBV activity in stable transfected HepG2.2.15 cell line (HBV DNA from secreted virions, realtime PCR)
Format: cell-based
experimentalConditions: Hepatitis B virus, HepG2.2.15, 144 h, HepG2.2.15 cells, 6 days of treatment, secreted virion HBV DNA; read-out: HepG2 2.15 EC50
pEC50: −log10 of the molar value.
endpointLabel: pEC50

INSERT INTO results (molecule, assaysystem, endpointlabel, endpointvalue) VALUES
  ('O=C(Nc1ccc(F)c(F)c1)c1cccc(S(=O)(=O)NC2CCCC2)c1', 'HBV', 'pEC50', 7.05),
  ('Cc1cc(NC(=O)c2cccc(S(=O)(=O)NC(C)C)c2)cc(F)c1F', 'HBV', 'pEC50', 7.05),
  ('O=C(Nc1ccc(F)cc1)c1cccc(S(=O)(=O)N[C@H]2CCOC2)c1', 'HBV', 'pEC50', 6.27),
  ('Cc1cc(NC(=O)c2cccc(S(=O)(=O)N[C@@H]3c4ccccc4C[C@@H]3O)c2)ccc1F', 'HBV', 'pEC50', 6.33);

====

Measured EC50 values are reported for all entries that follow.
System: HBV
assayInfo: Anti-HBV activity in stable transfected HepG2.2.15 cell line (HBV DNA from secreted virions, realtime PCR)
Assay type: cell-based
experimentalConditions: Hepatitis B virus, HepG2.2.15, 144 h, HepG2.2.15 cells, 6 days of treatment, secreted virion HBV DNA; read-out: HepG2 2.15 EC50
endpointLabel: EC50

INSERT INTO measurements (compound, endpointlabel, endpointvalue) VALUES
  ('CC1(NS(=O)(=O)c2cccc(C(=O)Nc3ccc(F)c(CO)c3)c2)COC1', 'EC50', '4480 nM'),
  ('CCC1(NS(=O)(=O)c2cccc(C(=O)Nc3ccc(F)cc3)c2)COC1', 'EC50', '540 nM'),
  ('CCC1(NS(=O)(=O)c2cccc(C(=O)Nc3ccc(F)c(C)c3)c2)COC1', 'EC50', '70 nM'),
  ('Cc1cc(NC(=O)c2cccc(S(=O)(=O)N[C@@H]3c4ccccc4C[C@H]3O)c2)ccc1F', 'EC50', '230 nM'),
  ('Cc1cc(NC(=O)c2cccc(S(=O)(=O)NC3CCC(O)C3)c2)ccc1F (centres unmarked)', 'EC50', '220 nM'),
  ('Cc1cc(NC(=O)c2cccc(S(=O)(=O)NC(C)C3CCN(C)CC3)c2)ccc1F (centres unmarked)', 'EC50', '3710 nM'),
  ('Cc1cc(NC(=O)c2cccc(S(=O)(=O)NC(C)c3cccnc3)c2)ccc1F (centres unmarked)', 'EC50', '170 nM'),
  ('Cc1cc(NC(=O)c2cccc(S(=O)(=O)N[C@H](C)[C@@H](O)c3ccccc3)c2)ccc1F', 'EC50', '130 nM'),
  ('CC[C@@H](C)NS(=O)(=O)c1ccc(F)c(C(=O)Nc2ccc(F)c(F)c2)c1', 'EC50', '130 nM'),
  ('Cc1cc(NC(=O)c2cccc(S(=O)(=O)NC(C)Cc3ccncc3)c2)ccc1F (centres unmarked)', 'EC50', '160 nM'),
  ('Cc1cc(NC(=O)c2cccc(S(=O)(=O)NC(C)c3ccncc3)c2)ccc1F (centres unmarked)', 'EC50', '200 nM'),
  ('O=C(Nc1ccc(F)cc1)c1cccc(S(=O)(=O)N[C@@H]2CCOC2)c1', 'EC50', '1180 nM'),
  ('CC(C)NS(=O)(=O)c1cccc(C(=O)Nc2ccc(F)c(C(F)(F)F)c2)c1', 'EC50', '640 nM'),
  ('Cc1cc(NC(=O)c2cccc(S(=O)(=O)N[C@H]3c4ccccc4C[C@@H]3O)c2)ccc1F', 'EC50', '620 nM'),
  ('Cc1cc(NC(=O)c2cccc(S(=O)(=O)N[C@@H](C)c3ccccc3)c2)ccc1F', 'EC50', '620 nM'),
  ('O=C(Nc1ccccc1)c1cc(S(=O)(=O)N2CCCCC2)c(Cl)cc1Cl', 'EC50', '500 nM'),
  ('Cc1cc(NC(=O)c2cc(F)cc(S(=O)(=O)NC(C)C)c2)ccc1F', 'EC50', '400 nM');
